# Read-out: KRT18 (gene 3875)
# assay_details: BSK_BE3C_Keratin818: BioMAP Diversity Plus: BE3C Assay for Keratin 818 Biomarker Activity (AID 2284282)
# condition_description: primary human bronchial epithelial cells
Activity calls are given as the source filed them. How the source made its calls: active means hit-call score of the fitted dose curve at least 0.9, where 1 is the maximum; inactive means score below 0.9.
test_readout: outcome

Some compounds with recorded outcome:
OCC(F)(F)OC(F)(F)C(F)(F)OC(F)(F)C(F)(F)OC(F)(F)F ... inactive
NC(=O)C(F)(F)C(F)(F)F ... inactive
FC(F)(F)C(F)(C(F)(F)F)C(F)(F)C(F)(F)CC1CO1 (stereo unspecified) ... inactive
CC(O)C(F)(F)C(F)(F)F (stereo unspecified) ... inactive
OCC(F)(F)OC(F)(F)C(F)(F)OC(F)(F)CO ... inactive
O=C(O)C=CC(F)(C(F)(F)F)C(F)(F)F ... inactive

Batch request: outcome for each of the following compounds.
1. OCC(F)(F)OC(F)(F)C(F)(F)OC(F)(F)C(F)(F)OC(F)(F)CO
2. O=C(O)C(F)(OC(F)(F)C(F)(F)C(F)(F)F)C(F)(F)F (stereo unspecified)
3. O=S(=O)(F)C(F)(F)C(F)(F)C(F)(F)C(F)(F)C(F)(F)C(F)(F)C(F)(F)C(F)(F)F

Ans:
inactive
inactive
inactive

Batch request: outcome for each of the following compounds.
1. C=CC(=O)OCC(F)(F)C(F)F
2. COP(=O)(CCC(=O)NCO)OC

Ans:
inactive
inactive

* * *

# target_under_test: human Phosphatase and Tensin Homolog (PTEN), PTEN (gene 5728) (UniProt P60484)
# Sequence (P60484 whole entry, looked up): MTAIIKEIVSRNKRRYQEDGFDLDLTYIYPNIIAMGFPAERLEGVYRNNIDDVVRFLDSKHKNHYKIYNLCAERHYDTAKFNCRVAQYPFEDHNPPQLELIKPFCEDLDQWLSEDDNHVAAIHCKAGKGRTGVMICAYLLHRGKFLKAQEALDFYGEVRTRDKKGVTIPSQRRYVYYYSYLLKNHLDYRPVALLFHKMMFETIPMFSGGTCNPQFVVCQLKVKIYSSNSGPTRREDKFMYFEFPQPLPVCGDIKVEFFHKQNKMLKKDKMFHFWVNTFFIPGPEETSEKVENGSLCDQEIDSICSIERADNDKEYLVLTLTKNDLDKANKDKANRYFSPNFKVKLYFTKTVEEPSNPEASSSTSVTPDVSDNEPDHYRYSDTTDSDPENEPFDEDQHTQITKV
# assay_details: NVS_ENZ_hPTEN: NovaScreen (NVS) Enzymatic Assay for human Phosphatase and Tensin Homolog (PTEN) (AID 2283203)
Inconclusive results are not listed. Active and inactive are the calls of the source. Rule for the calls: active = hit-call score of the fitted dose curve at least 0.9, where 1 is the maximum; inconclusive = response in the unintended direction; inactive = score below 0.9.
Tick one outcome: yes (1) = active, no (0) = inactive

Record excerpt, results attached:
Nc1ccc([N+](=O)[O-])cc1Cl ... yes (1)
O=[N+]([O-])c1cc(Cl)ccc1Cl ... no (0)
Clc1ccc(Oc2ccccc2)cc1 ... no (0)

Attention now shifts to the item below.
Q: For Cc1ccc(C(=O)Cl)cc1 , which call appears in the assay record?
Ans: no (0)

* * *

# assay_details: CCTE_Padilla_ZF_144hpf_TERATOSCORE: (Legacy) CCTE's 144 Hour Post-fertilization zebrafish Assay Teratoscore, Padilla Lab (AID 2283679);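 further: zebrafish embryos with chorions exposed by immersion from 6-8 hpf to 5 dpf with daily renewal; teratogenicity score from eye scoring of death hatching and malformations at 144 hpf; higher score means more developmental defects relative to DMSO baseline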
Active and inactive are the calls of the source. How the source made its calls: active means hit-call score of the fitted dose curve at least 0.9, where 1 is the maximum; inactive means score below 0.9.
Tick one outcome: YES = active, NO = inactive

Q: For O=P(Oc1ccccc1)(Oc1ccccc1)Oc1ccccc1 , which call appears in the assay record?
Ans: YES

Q: For CCCCN(CCCC)SN(C)C(=O)Oc1cccc2c1OC(C)(C)C2 , which call appears in the assay record?
Ans: YES

Q: For CCC(C)(C)c1ccc(O)cc1 , which call appears in the assay record?
Ans: YES

* * *

# assay_details: ATG_GLI_CIS: Attagene CIS-FACTORIAL HepG2 Assay for human Zinc Finger Protein GLI1 (AID 2282945)
# condition_description: HepG2, Attagene cis-factorial reporter mRNA, GLI element; actives raise or lower the signal
The source made the active and inactive calls. How the source made its calls: active means hit-call score of the fitted dose curve at least 0.9, where 1 is the maximum; inactive means score below 0.9.
Tick one outcome: Y for active, N for inactive

Record excerpt, results attached:
CC(C)(C)c1ccccc1OP(=O)(Oc1ccccc1)Oc1ccccc1 ... N
c1cc2c3c(cccc3c1)CC2 ... N
CCOP(=O)(O)C(N)=O ... N
NNC(N)=S ... N
ClC(Cl)(Cl)c1ccccc1 ... N
CC(Cc1ccc(OCC(=O)O)cc1)NCC(O)c1csc(C(F)(F)F)n1 (centres undefined) ... N
CC(O)C#N (centres undefined) ... N
ClC(Cl)=C(c1ccc(Cl)cc1)c1ccccc1Cl ... N

Q: For N#Cc1ccc(O)cc1 , which call appears in the assay record?
Ans: N

Q: For CC(C)(C)N(NC(=O)c1ccc(Cl)cc1)C(=O)c1ccccc1 , which call appears in the assay record?
Ans: N

Q: For CCOC(=O)c1ccccc1N , which call appears in the assay record?
Ans: N

Q: For OCC(F)(F)OC(F)(F)C(F)(F)OC(F)(F)CO , which call appears in the assay record?
Ans: N

Q: For O=C(O)C1C(C(=O)O)C2(Cl)C(Cl)=C(Cl)C1(Cl)C2(Cl)Cl (centres undefined) , which call appears in the assay record?
Ans: N

Q: For O=c1ssc(Cl)c1Cl , which call appears in the assay record?
Ans: Y

* * *

# assay_details: CCTE_Shafer_MEA_acute_cross_correlation_HWHM: CCTE's Neural Acute Assay for Cross Correlation at Half Width at Half Maximum, Shafer Lab (AID 2284026);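 further: percent change per well from pre-dose baseline in spike cross-correlogram half width; hits are a decrease in cross-correlogram half width relative to DMSO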
Active and inactive are the calls of the source. Rule for the calls: active = hit-call score of the fitted dose curve at least 0.9, where 1 is the maximum; inactive = score below 0.9.
test_readout: AC50

Some compounds with recorded AC50:
CCOc1ccc(C(C)(C)COCc2cccc(Oc3ccccc3)c2)cc1 ... inactive
ClC(Cl)(Cl)c1ccccc1 ... inactive
CCCCC(CC)COP(=O)(Oc1ccccc1)Oc1ccccc1 (stereo unspecified) ... 10.3 µM (active)
CC(Cl)(Cl)C(=O)O ... inactive
[N-]=[N+]=[N-] ... inactive

Q: // returns reported AC50 for input c1ccc2c(c1)Nc1ccccc1S2
Ans: 36.9 µM (active)

* * *

# Read-out: Interleukin 17A (IL17A), IL17A (gene 3605)
# assay_details: BSK_BT_xIL17A: BioMAP Diversity Plus: BT Assay for Interleukin 17A (IL17A) Biomarker Activity (AID 2284229)
# condition_description: primary human B cells with PBMC
Activity calls are given as the source filed them. Rule for the calls: active = hit-call score of the fitted dose curve at least 0.9, where 1 is the maximum; inactive = score below 0.9.
Tick one outcome: T for active, F for inactive

Q: For CCCCC(CC)COP(=O)(Oc1ccccc1)Oc1ccccc1 (configuration not stated) , which call appears in the assay record?
Ans: T

Q: For CC(C)Nc1ccc(Nc2ccccc2)cc1 , which call appears in the assay record?
Ans: T

Q: For CCCCOCCOP(=O)(OCCOCCCC)OCCOCCCC , which call appears in the assay record?
Ans: F

* * *

# Read-out: DNA damage-inducible transcript 3 (DDIT3), DDIT3 (gene 1649)
# assay_details: LTEA_HepaRG_DDIT3: Life Technologies and Expression Analysis (LTEA) Assay for DNA damage-inducible transcript 3 (DDIT3) using HepaRG (AID 2283488)
# condition_description: mRNA level, 48 h; actives raise or lower the signal
Calls of active or inactive are those of the source. Rule for the calls: active = hit-call score of the fitted dose curve at least 0.9, where 1 is the maximum; inactive = score below 0.9.
Tick one outcome: active, inactive

Record excerpt, results attached:
CCNc1nc(Cl)nc(NC(C)(C)C)n1 ... inactive
c1cc2c3c(cccc3c1)CC2 ... inactive
CCN(CC)c1ccccc1 ... inactive
CC(C)(C)OOC(C)(C)C ... inactive

Q: For CC(Cl)(Cl)C(=O)O , which call appears in the assay record?
Ans: inactive

Q: For O=P(Oc1ccccc1)(Oc1ccccc1)Oc1ccccc1 , which call appears in the assay record?
Ans: active

Q: For Cc1ccc(O)cc1C , which call appears in the assay record?
Ans: inactive

Q: For CCC1(c2ccccc2)C(=O)N=C(O)NC1=O (stereo not drawn) , which call appears in the assay record?
Ans: inactive

* * *

# target_under_test: Cellular tumor antigen p53 (Homo sapiens) (UniProt P04637)
# Sequence (P04637 whole entry, looked up): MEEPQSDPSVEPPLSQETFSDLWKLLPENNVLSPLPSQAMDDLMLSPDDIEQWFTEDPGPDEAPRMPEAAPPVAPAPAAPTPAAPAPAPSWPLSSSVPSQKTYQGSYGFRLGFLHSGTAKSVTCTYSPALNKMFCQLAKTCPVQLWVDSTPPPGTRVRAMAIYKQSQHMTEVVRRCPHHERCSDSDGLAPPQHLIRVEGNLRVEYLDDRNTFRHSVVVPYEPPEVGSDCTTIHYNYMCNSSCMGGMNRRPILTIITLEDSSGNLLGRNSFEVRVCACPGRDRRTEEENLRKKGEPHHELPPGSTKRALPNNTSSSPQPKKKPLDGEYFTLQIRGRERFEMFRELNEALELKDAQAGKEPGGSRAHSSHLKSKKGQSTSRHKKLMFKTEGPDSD
# assay_details: TOX21_p53_BLA_p2_ratio: Tox21 HCT-116 p53 Agonism Beta-lactamase Assay, Ratio, Phase 2 (AID 2283592)
Inconclusive results are not listed. Active and inactive are the calls of the source. The calls were made as follows: active = hit-call score of the fitted dose curve at least 0.9, where 1 is the maximum; inconclusive = response in the unintended direction; inactive = score below 0.9.
Tick one outcome: active, inactive

CO/N=C(/C(=O)OC)c1ccccc1COc1ccccc1C ... active
CCOC(=O)c1ccccc1C(=O)OCC ... inactive
COC(N)=O ... inactive
CC1(C)CN=C(NN=C(/C=C/c2ccc(C(F)(F)F)cc2)/C=C/c2ccc(C(F)(F)F)cc2)NC1 ... active
OCC1CO1 (stereo not given) ... inactive

Q: For C/C(=N\NC(=O)Nc1cc(F)cc(F)c1)c1ncccc1C(=O)O , which call appears in the assay record?
Ans: inactive

Q: For CCCCN(CCCC)N=O , which call appears in the assay record?
Ans: inactive

Q: For CCOS(=O)(=O)OCC , which call appears in the assay record?
Ans: inactive

Q: For c1ccc2c(c1)Nc1ccccc1S2 , which call appears in the assay record?
Ans: inactive

* * *

# assay_details: CCTE_Padilla_ZF_Score.Craniofacial: CCTE's 144 Hour Post-fertilization zebrafish Assay Score for Craniofacial Malformation, Padilla Lab (AID 2284405)
Activity calls are given as the source filed them. The calls were made as follows: active = hit-call score of the fitted dose curve at least 0.9, where 1 is the maximum; inactive = score below 0.9.
test_readout: outcome

O=C(O)C(F)(F)OC(F)(F)C(F)(F)OC(F)(F)F ... inactive
OCC(F)(F)OC(F)(F)C(F)(F)OC(F)(F)C(F)(F)OC(F)(F)CO ... inactive
NC(=O)C(F)(F)C(F)(F)F ... inactive

* * *

# assay_details: STM_H9_NormalizedViability: Cytotoxicity Assessment at 120 hours in the Stemina devTOX quickPredict H9 human embryonic stem cell (hESC)-based Assay (AID 2283784)
Results filed as inconclusive are left out. Active and inactive are the calls of the source. The calls were made as follows: active = hit-call score of the fitted dose curve at least 0.9, where 1 is the maximum; inconclusive = response in the unintended direction; inactive = score below 0.9.
Tick one outcome: active, inactive

Record excerpt, results attached:
Cc1ccc(N)cc1N ... active
CCC1(c2ccccc2)C(=O)N=C(O)NC1=O (stereo unspecified) ... inactive
O=P(Oc1ccccc1)(Oc1ccccc1)Oc1ccccc1 ... inactive
CCOC(=O)c1ccccc1C(=O)OCC ... inactive

Q: For O=C(O)C1C(C(=O)O)C2(Cl)C(Cl)=C(Cl)C1(Cl)C2(Cl)Cl (stereo unspecified) , which call appears in the assay record?
Ans: inactive

Q: For c1ccc2c(c1)Nc1ccccc1S2 , which call appears in the assay record?
Ans: inactive
